PROTOCOL_DETAILS: Solubility in CH2Cl2
Type: physicochemical
MEASUREMENT_CONTEXT: dichloromethane
# solubility per record follows
QUANTITY: solubility (µg/mL)

smiles_string=COc1ccc(-c2ccc3[nH]c(=O)c4cnc(-c5ccc(N6CCNCC6)c(C(F)(F)F)c5)n4c3c2)cn1 quantity=solubility uom=µg/mL readout_number=600
smiles_string=COc1ccc(-c2ccc3[nH]c(=O)c4ncc(-c5ccc(N6CCNCC6)c(C(F)(F)F)c5)n4c3c2)cn1 quantity=solubility uom=µg/mL readout_number=520
smiles_string=COc1ccc(-c2ccc3[nH]c(=O)c4ncn(-c5ccc(N6CCNCC6)c(C(F)(F)F)c5)c4c3c2)cn1 quantity=solubility uom=µg/mL readout_number=570
smiles_string=COc1ccc(-c2ccc3[nH]c(=O)c4ccc(-c5ccc(N6CCNCC6)c(C(F)(F)F)c5)n4c3c2)cn1 quantity=solubility uom=µg/mL readout_number=370
smiles_string=COc1ccc(-c2ccc3[nH]c(=O)c4c(c3c2)n(-c2ccc(N3CCNCC3)c(C(F)(F)F)c2)c(=O)n4C)cn1 quantity=solubility uom=µg/mL readout_number=600
smiles_string=COc1ccc(-c2ccc3c(c2)-n2c(nnc2-c2ccc(N4CCNCC4)c(C(F)(F)F)c2)CC(=O)N3)cn1 quantity=solubility uom=µg/mL readout_number=6480
smiles_string=COc1ccc(-c2ccc3[nH]c(=O)c4cnn(-c5ccc(N6CCNCC6)c(C(F)(F)F)c5)c4c3c2)cn1 quantity=solubility uom=µg/mL readout_number=740
smiles_string=COc1ccc(-c2ccc(NC(=O)c3cn(-c4ccc(N5CCNCC5)c(C(F)(F)F)c4)nn3)cc2)cn1 quantity=solubility uom=µg/mL readout_number=7800
smiles_string=COc1ccc(-c2ccc3[nH]c(=O)c4nnn(-c5ccc(N6CCNCC6)c(C(F)(F)F)c5)c4c3c2)cn1 quantity=solubility uom=µg/mL readout_number=16

----------
Catalogue of solubility values
PROTOCOL_DETAILS: Solubility in H2O
Assay type: physicochemical
MEASUREMENT_CONTEXT: water
QUANTITY: solubility (µg/mL)

smiles_string=COc1ccc(-c2ccc3[nH]c(=O)c4c(c3c2)n(-c2ccc(N3CCNCC3)c(C(F)(F)F)c2)c(=O)n4C)cn1 quantity=solubility readout_number=78
smiles_string=COc1ccc(-c2ccc3[nH]c(=O)c4nnn(-c5ccc(N6CCNCC6)c(C(F)(F)F)c5)c4c3c2)cn1 quantity=solubility readout_number=2.3
smiles_string=COc1ccc(-c2ccc(NC(=O)c3cn(-c4ccc(N5CCNCC5)c(C(F)(F)F)c4)nn3)cc2)cn1 quantity=solubility readout_number=400
smiles_string=COc1ccc(-c2ccc3[nH]c(=O)c4ncc(-c5ccc(N6CCNCC6)c(C(F)(F)F)c5)n4c3c2)cn1 quantity=solubility readout_number=42

----------
PROTOCOL_DETAILS: Solubility in DMSO
Format: physicochemical
Mark Fulfilled for reported solubility of 100 mg/mL or greater; mark Not fulfilled for anything smaller.

smiles_string=COc1ccc(-c2ccc3[nH]c(=O)c4nnn(-c5ccc(N6CCNCC6)c(C(F)(F)F)c5)c4c3c2)cn1 assigned_category="Not fulfilled"
smiles_string=COc1ccc(-c2ccc3[nH]c(=O)c4ccc(-c5ccc(N6CCNCC6)c(C(F)(F)F)c5)n4c3c2)cn1 assigned_category="Not fulfilled"
smiles_string=COc1ccc(-c2ccc3[nH]c(=O)c4ncc(-c5ccc(N6CCNCC6)c(C(F)(F)F)c5)n4c3c2)cn1 assigned_category="Not fulfilled"
smiles_string=COc1ccc(-c2ccc3[nH]c(=O)c4cnc(-c5ccc(N6CCNCC6)c(C(F)(F)F)c5)n4c3c2)cn1 assigned_category="Not fulfilled"
smiles_string=COc1ccc(-c2ccc3[nH]c(=O)c4c(c3c2)n(-c2ccc(N3CCNCC3)c(C(F)(F)F)c2)c(=O)n4C)cn1 assigned_category="Not fulfilled"
smiles_string=COc1ccc(-c2ccc(NC(=O)c3cn(-c4ccc(N5CCNCC5)c(C(F)(F)F)c4)nn3)cc2)cn1 assigned_category=Fulfilled
smiles_string=COc1ccc(-c2ccc3c(c2)-n2c(nnc2-c2ccc(N4CCNCC4)c(C(F)(F)F)c2)CC(=O)N3)cn1 assigned_category=Fulfilled
smiles_string=COc1ccc(-c2ccc3[nH]c(=O)c4ncn(-c5ccc(N6CCNCC6)c(C(F)(F)F)c5)c4c3c2)cn1 assigned_category="Not fulfilled"

Values from ChEMBL document CHEMBL5329187
